Could you please report measured DC50 for the items listed next?
# target: IRAK4 (Homo sapiens, UniProt Q9NWZ3)
# Construct: Degradation of IRAK4 in OCI-LY10 was quantitatively measured using Meso Scale Discovery technology; endogenous in cells; host or cells: OCI-LY10
# Sequence (Q9NWZ3 1-460): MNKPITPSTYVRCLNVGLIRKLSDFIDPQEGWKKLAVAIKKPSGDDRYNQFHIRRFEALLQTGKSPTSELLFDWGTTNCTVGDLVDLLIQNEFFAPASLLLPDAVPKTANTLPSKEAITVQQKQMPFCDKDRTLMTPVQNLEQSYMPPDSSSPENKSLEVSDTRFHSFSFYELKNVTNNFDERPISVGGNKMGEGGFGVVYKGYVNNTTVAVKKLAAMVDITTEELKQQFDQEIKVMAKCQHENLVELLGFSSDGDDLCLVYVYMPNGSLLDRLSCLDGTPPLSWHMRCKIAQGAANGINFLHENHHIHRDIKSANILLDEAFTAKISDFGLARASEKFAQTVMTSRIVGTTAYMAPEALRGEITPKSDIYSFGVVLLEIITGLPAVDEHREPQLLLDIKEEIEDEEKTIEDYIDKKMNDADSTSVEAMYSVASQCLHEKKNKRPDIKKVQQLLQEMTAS
# testDetails: IRAK4 MSD Degradation in OCI-LY10
# Assay type: cell-based
# recordedConditions: OCI-LY10 cells, 24 hrs incubation, MSD; read-out: IRAK4 degradation in OCI-LY10 at 24 hrs: DC50

Report DC50 for Cn1c(=O)n(C2CCC(=O)NC2=O)c2cccc(C#CCN3CCN(C[C@H]4CC[C@H](n5cc(NC(=O)c6cnn7ccc(N8CCOC(F)(F)C8)nc67)c(C(F)F)n5)CC4)CC3)c21 (stereo partly shown) [I-703] please. < 10 nM

How about this compound: C[C@H]1CN(C[C@H]2CC[C@H](n3cc(NC(=O)c4cnn5ccc(N6C[C@H]7C[C@@H]6CO7)nc45)c(C(F)F)n3)CC2)CC[C@@H]1OCC#Cc1cccc2c1n(C)c(=O)n2C1CCC(=O)NC1=O (stereo partly shown) [I-37] < 10 nM

How about this compound: Cn1c(=O)n(C2CCC(=O)NC2=O)c2cccc(C#CC[C@@H]3CN(Cc4ccc(-n5cc(NC(=O)c6cnn7ccc(N8C[C@H]9C[C@@H]8CO9)nc67)c(C(F)F)n5)cc4)CCO3)c21 (stereo partly shown) > 200 nM

How about this compound: Cn1c(=O)n(C2CCC(=O)NC2=O)c2cccc(C3CN(C[C@H]4CC[C@H](n5cc6cc(NC(=O)c7cccc(C(F)(F)F)n7)ccc6n5)CC4)C3)c21 (stereo partly shown) > 200 nM

How about this compound: Cn1c(=O)n(C2CCC(=O)NC2=O)c2cccc(C#CCOC3CN(C[C@H]4CC[C@H](n5cc(NC(=O)c6cnn7ccc(N8C[C@H]9C[C@@H]8CO9)nc67)c(C(F)F)n5)CC4)C3)c21 (stereo partly shown) [I-20] > 200 nM

How about this compound: Cn1c(=O)n(C2CCC(=O)NC2=O)c2cccc(C#CCN3CCN(C[C@H]4CC[C@H](n5cc(NC(=O)c6cnn7ccc(N8CCCC8)nc67)c(C(F)F)n5)CC4)CC3)c21 (stereo partly shown) > 200 nM

How about this compound: Cn1c(=O)n(C2CCC(=O)NC2=O)c2cccc(N3CCN(C4CCN([C@H]5CC[C@H](n6cc(NC(=O)c7cnn8ccc(N9C[C@H]%10C[C@@H]9CO%10)nc78)c(C(F)F)n6)CC5)CC4)CC3)c21 (single isomer, unassigned) > 200 nM

How about this compound: CN(C[C@H]1CC[C@H](n2cc3cc(NC(=O)c4cccc(C(F)(F)F)n4)c(C#N)cc3n2)CC1)C1CCN(c2cccc3c2n(C)c(=O)n3C2CCC(=O)NC2=O)CC1(F)F (stereo partly shown) > 200 nM

How about this compound: COc1ncc([C@H]2CC[C@H](CN3CCC(OCC#Cc4cccc5c4n(C)c(=O)n5C4CCC(=O)NC4=O)CC3)CC2)cc1NC(=O)c1cnn2ccc(N3C[C@H]4C[C@@H]3CO4)nc12 (stereo partly shown) > 200 nM

How about this compound: Cn1c(=O)n(C2CCC(=O)NC2=O)c2cccc(C3CCN(C[C@H]4CC[C@H](n5cc6cc(NC(=O)c7cccc(C(F)(F)F)n7)c(C(F)F)cc6n5)CC4)CC3(F)F)c21 (stereo partly shown) > 200 nM

Origin of values: patent US12091411B2
